molecular target: T1, TAT10772 polypeptide (human); assay: Scatchard analysis, IgG; form of TAT10772 not stated
T1 construct: Cell-surface TAT10772 on engineered PC3 cells (PC3/A5.3B2), OVCAR-3, OVCA-432, SK-OV-3 cells and tumor tissue; also called TAT10772 target polypeptide
measured_attribute: Kd (nM)
Your answer should be a plain number; it is taken to be in nM.

# example entries with known answers
binder	Kd, nM
3A5 chimera (mu3A5-H; SEQ ID NO: 11) (antibody, V domains shown, IgG; also called chimeric 3A5; chimeric antibody) VH: DVQLQESGPGLVNPSQSLSLTCTVTGYSITNDYAWNWIRQFPGNKLEWMGYINYSGYTTYNPSLKSRISITRDTSKNQFFLHLNSVTTEDTATYYCARWDGGLTYWGQGTLVTVSA VL: DIQMTQSPSSLSASVGDRVTITCKASDLIHNWLAWYQQKPGKAPKLLIYGATSLETGVPSRFSGSGSGTDFTLTISSLQPEDFATYYCQQYWTTPFTFGQGTKVEIKR	0.57
3A5v1b 52 (SEQ ID NO: 206) (antibody, V domains shown, Humanized IgG, 3A5.v1 with the CDR-H2 glycosylation site removed at position 52) VH: EVQLVESGGGLVQPGGSLRLSCAASGYSITNDYAWNWVRQAPGKGLEWVGYISYSGYTTYNPSLKSRFTISRDTSKNTLYLQMNSLRAEDTAVYYCARWASGLDYWGQGTLVTVSS VL: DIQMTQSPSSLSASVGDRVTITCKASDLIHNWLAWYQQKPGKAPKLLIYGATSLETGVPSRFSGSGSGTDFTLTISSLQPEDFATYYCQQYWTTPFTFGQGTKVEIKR	0.47
3A5v1b 54 (SEQ ID NO: 207) (antibody, V domains shown, Humanized IgG, 3A5.v1 with the CDR-H2 glycosylation site removed at position 54) VH: EVQLVESGGGLVQPGGSLRLSCAASGYSITNDYAWNWVRQAPGKGLEWVGYINYAGYTTYNPSLKSRFTISRDTSKNTLYLQMNSLRAEDTAVYYCARWASGLDYWGQGTLVTVSS VL: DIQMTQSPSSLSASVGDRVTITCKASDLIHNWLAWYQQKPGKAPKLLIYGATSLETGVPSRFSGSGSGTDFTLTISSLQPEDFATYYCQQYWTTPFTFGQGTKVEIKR	0.37

Now take the following binder into account.
Req: Answer with reported Kd of 3A5v4b 52 (SEQ ID NO: 208) (antibody, V domains shown, Humanized IgG, 3A5.v4 with the CDR-H2 glycosylation site removed at position 52) VH: EVQLVESGGGLVQPGGSLRLSCAASGYSITNDYAWNWVRQAPGKGLEWVGYISYSGYTTYNPSLKSRFTISRDTSKNTLYLQMNSLRAEDTAVYYCARWTSGLDYWGQGTLVTVSS VL: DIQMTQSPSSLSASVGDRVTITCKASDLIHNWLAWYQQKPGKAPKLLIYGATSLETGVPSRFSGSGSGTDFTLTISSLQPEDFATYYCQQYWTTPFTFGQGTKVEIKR
Resp: 0.46

Just for reference, patent USRE47223 is where these values come from.
